assay-system: T1, human HVEM:Fc (Fc of human IgG1) (human, UniProt Q92956 39-184)
T1 construct: range 1-184; Bivalent chimeric protein made with baculovirus vector pVL1392; also called huHVEM:Fc; hu HVEM:Fc; not shown: Fc region of human IgG1
T1 sequence (looked up): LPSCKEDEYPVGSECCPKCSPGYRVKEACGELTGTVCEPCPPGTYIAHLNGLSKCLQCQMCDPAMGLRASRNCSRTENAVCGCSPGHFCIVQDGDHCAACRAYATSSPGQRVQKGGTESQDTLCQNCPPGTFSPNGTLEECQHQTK
method: SPR (BIAcore 1000), receptor:Fc amine-coupled to CM5 chip, LIGHT as analyte 100-500 nM, 25 C
endpoint-name: koff (s⁻¹)

binder="LIGHT t66 G119E (ligand, not shown: small tags and cut ends, FLAG-tagged point mutant from transiently transfected 293T cells, homotrimer; also called LIGHTG119E; LIGHT-G119E) EMVTRLPDGPAGSWEQLIQERRSHEVNPAAHLTGANSSLTGSGGPLLWETQLELAFLRGLSYHDGALVVTKAGYYYIYSKVQLGGVGCPLGLASTITHGLYKRTPRYPEELELLVSQQSPCGRATSSSRVWWDSSFLGGVVHLEAGEEVVVRVLDERLVRLRDGTRSYFGAFMV" test_result=0.002
binder="LIGHT t66 Q117T (ligand, not shown: small tags and cut ends, FLAG-tagged point mutant from transiently transfected 293T cells, homotrimer; also called Q11TT) EMVTRLPDGPAGSWEQLIQERRSHEVNPAAHLTGANSSLTGSGGPLLWETTLGLAFLRGLSYHDGALVVTKAGYYYIYSKVQLGGVGCPLGLASTITHGLYKRTPRYPEELELLVSQQSPCGRATSSSRVWWDSSFLGGVVHLEAGEEVVVRVLDERLVRLRDGTRSYFGAFMV" test_result=5e-06
binder="LIGHTt66-FLAG (ligand, not shown: small tags and cut ends, also called soluble homotrimeric LIGHT; recombinant soluble LIGHT) EMVTRLPDGPAGSWEQLIQERRSHEVNPAAHLTGANSSLTGSGGPLLWETQLGLAFLRGLSYHDGALVVTKAGYYYIYSKVQLGGVGCPLGLASTITHGLYKRTPRYPEELELLVSQQSPCGRATSSSRVWWDSSFLGGVVHLEAGEEVVVRVLDERLVRLRDGTRSYFGAFMV" test_result=4.8e-05
binder="LIGHT t66 Y173F (ligand, not shown: small tags and cut ends, FLAG-tagged point mutant from transiently transfected 293T cells, homotrimer) EMVTRLPDGPAGSWEQLIQERRSHEVNPAAHLTGANSSLTGSGGPLLWETQLGLAFLRGLSYHDGALVVTKAGYYYIYSKVQLGGVGCPLGLASTITHGLYKRTPRFPEELELLVSQQSPCGRATSSSRVWWDSSFLGGVVHLEAGEEVVVRVLDERLVRLRDGTRSYFGAFMV" test_result=0.0033
